Run description: qHTS Assay for Lipid Storage Modulators (AID 1519); note: % is set by controls: 0 for no effect and ±100 for the full control effect
Experimental context: Drosophila S3 cells, BODIPY lipid droplet/cell ratio, laser cytometry; at 57.5 µM (top of the series); cells loaded with oleic acid
Results filed as inconclusive are left out.
I'd be grateful if you could share measured activity change, negative = inhibition for these entries.
Numeric only. Scale: %

Give me measured activity change, negative = inhibition, please, for this molecule: `Cc1cccc(CNc2cc(-c3ccccc3CN(C)C)ncn2)c1`
2.35

Name the recorded activity change, negative = inhibition of the molecule listed here: `Cc1cccc(CNc2ncnc3ccc(-c4cccc(C#N)c4)cc23)c1`
0.488

Determine from records and report activity change, negative = inhibition for `Cc1nc2cnc(OCc3ccccc3)nc2n(C)c1=O`
7.08

# return recorded activity change, negative = inhibition for input `COCC(=O)N1CCC2(CC1)CCN(C(=O)Nc1cccc(C#N)c1)CC2`
1.13

Dear colleague, please send me the reported activity change, negative = inhibition for `COc1ccccc1CNc1ncncc1-c1ccoc1` when you can.
9.08

Using known records, supply activity change, negative = inhibition for `CC(C)NC(=O)N1CCCC2(CCN(C(=O)c3cccc(F)c3)CC2)C1`
3.5

Please report the measured activity change, negative = inhibition for `COc1ccc(-n2c(=O)cnc3cnc(N4CCOCC4)nc32)cc1`
6.91

In one line, give reported activity change, negative = inhibition of the entry `COCCNc1ncnc2ccc(-c3cccc(NS(C)(=O)=O)c3)cc12` .
1.59

Consider the molecule `CN(C)c1ncc2nc(-c3cc(F)cc(F)c3)c(=O)n(CCC#N)c2n1` . State its measured activity change, negative = inhibition.
3.22

Answer with reported activity change, negative = inhibition of `O=C(Nc1ccccc1)N1CC[C@@]2(CCCN(C(=O)c3cnccn3)C2)C1`
1.67

Specify activity change, negative = inhibition for `N#CCCn1c(=O)c(-c2ccc(Cl)cc2)nc2cnc(OCc3ccccc3)nc21` and stop.
5.27

====

Would you mind telling me the reported activity, negative = inhibition of each entry?
Run description: Stat Signaling Pathway (AID 446);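 note: ME-180 cervical cancer cells given 40 pM IL-6 alongside compound; SIE-controlled beta-lactamase reporter measured as 460/530 nm FRET emission ratio; % is set by controls: 0 for no effect and ±100 for the full control effect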
Experimental context: ME-180 (cervical carcinoma) SIE beta-lactamase reporter, IL-6 stimulated, 5 h; at 7.69 µM (top of the series) unless noted
Records with an inconclusive call do not appear. Activity calls are given as the source filed them. Calls follow the shape of the dose curve; as a rule, active = well fitted curve in either direction with a large enough effect (not every such curve was filed as active); inconclusive = small, poorly fitted or top-dose-only effect, or another doubt; inactive = flat fitted curve, though single readings scatter.

Return the recorded activity, negative = inhibition value; entry: `COCCn1c(=O)c(-c2cccc(C#N)c2)nc2cnc(OC)nc21`
-9.77% (inactive)

Using the record for `CCNc1ncc2nc(-c3cn(C)c4ccccc34)c(=O)n(-c3ccccc3)c2n1` , state its measured activity, negative = inhibition.
-9.31% (inactive)

Complete the entry with activity, negative = inhibition for `COc1ccccc1-c1cc(NCc2cccnc2)ncn1`
0.807% (inactive)

Give a short answer stating reported activity, negative = inhibition for `Cn1c(=O)c(-c2cccs2)nc2cnc(N3CCOCC3)nc21` .
-4.84% (inactive)

Report activity, negative = inhibition, nothing else, for this compound: `COc1ccc(Oc2ncc3nc(CCc4ccccc4)c(=O)n(C[C@H]4CCCO4)c3n2)cc1`
-17.3% (inactive)

Please report the measured activity, negative = inhibition for `COc1ncc2nc(-c3ccccc3)c(=O)n(C)c2n1`
-14.9% (inactive)

# return recorded activity, negative = inhibition for entry `CS(=O)(=O)N1CCC2(CC1)CN(c1ccncc1)C2`
-0.0709% (inactive)

Note activity, negative = inhibition for the compound shown: `COc1ccc(Oc2ncc3nc(-c4ccc(OC)cc4)c(=O)n(Cc4cccs4)c3n2)cc1`
8.59% (inactive)

Look up and state reported activity, negative = inhibition for `CS(=O)(=O)N1CCC2(CC1)CN(C(=O)Nc1ccccc1)C2`
8.65% (inactive)

Answer with the recorded activity, negative = inhibition of `FC(F)(F)c1cc(CN2CC3(CCNCC3)C2)cc(C(F)(F)F)c1` only.
3.31% (inactive)

Quick one: give measured activity, negative = inhibition for `O=C(c1ccco1)N1CCC2(CC1)CCN(c1cccc(-c3ccccc3)c1)CC2`
-16.1% (inactive)

Identify the reported activity, negative = inhibition for the following entry. `O=c1cnc2cnc(N3CCOCC3)nc2n1C1CC1`
-6.14% (inactive)

Supply activity, negative = inhibition value. Item: `CC(=O)N1CCC2(CC1)CN(c1ccccn1)C2`
-0.186% (inactive)

Supply recorded activity, negative = inhibition for `COc1ccc(CNc2ncncc2-c2cccnc2)c(OC)c1` here.
0.586% (inactive)

// fetch activity, negative = inhibition given entry `N#CCCn1c(=O)c(CCc2ccccc2)nc2cnc(OCc3ccccc3)nc21`
-0.503% (inactive)

Given the compound `COc1cccc(-c2cncnc2Nc2ccc(F)cc2)c1` , write its reported activity, negative = inhibition.
-10.1% (inactive)

Let me know recorded activity, negative = inhibition for `O=S(=O)(c1ccccc1)N1CCC2(CCN(C(c3ccccc3)c3ccccc3)CC2)CC1` , thanks.
-5.59% (inactive)

Please give the documented activity, negative = inhibition of `Cc1ccccc1-c1nccc(NCc2cccs2)n1`
3.98% (inactive)

Please indicate activity, negative = inhibition recorded for `COc1cccc(-c2cc(NCc3cccs3)ncn2)c1`
-4.26% (inactive)

Supply activity, negative = inhibition value. Item: `Cc1cccc(CNc2ncncc2-c2cccc(C#N)c2)c1`
14.8% (inactive)

Answer with reported activity, negative = inhibition of `Cn1c(=O)c(-c2cc(F)cc(F)c2)nc2cnc(N3CCOCC3)nc21`
-1.78% (inactive)

State its activity, negative = inhibition: `COc1cccc(-c2ccc3ncnc(N(C)Cc4ccco4)c3c2)c1`
-14.9% (inactive)

For the compound `COCC(=O)N1CCC[C@@]2(CCN(C(=O)Nc3cccc(F)c3)C2)C1` , report activity, negative = inhibition.
-1.05% (inactive)

Please look at this compound and report its activity, negative = inhibition: `CC(C)NC(=O)N1CCCC2(CCN(C(=O)c3ccncc3)CC2)C1`
-5.11% (inactive)

Answer with the recorded activity, negative = inhibition for the compound listed here: `CC(C)NC(=O)N1CC2(CCN(C(=O)c3ccncc3)CC2)C1`
7.63% (inactive)

Indicate its recorded activity, negative = inhibition; the compound in question is `CN(C)Cc1ccccc1-c1cc(Nc2ccccc2)ncn1`
9.68% (inactive)

Specify measured activity, negative = inhibition for `COCCn1c(=O)cnc2cnc(Oc3ccccc3)nc21` .
-13.1% (inactive)

Hello, please tell me recorded activity, negative = inhibition for this one: `Cn1cc(-c2nc3cnc(Oc4ccccc4)nc3n(C)c2=O)c2ccccc21`
24.9% (inactive)

Fill in activity, negative = inhibition for record `CCNc1ncc2nc(C)c(=O)n(CCC#N)c2n1`
-4.05% (inactive)

Return activity, negative = inhibition for the following compound: `CN(C)C(=O)c1ccc(-c2cc(-n3ccnc3)ncn2)cc1`
7.04% (inactive)

Annotate the compound `Cc1noc(C)c1C(=O)N1CCC[C@@]2(CCN(c3ncccn3)C2)C1` with its measured activity, negative = inhibition.
-3.95% (inactive)

Kindly indicate its recorded activity, negative = inhibition. Item: `Cn1c(=O)c(-c2ccc(Cl)cc2)nc2cnc(Oc3cccc(Cl)c3)nc21`
-0.313% (inactive)

Answer with the recorded activity, negative = inhibition of `COCCNc1ncncc1-c1c(C)noc1C` only.
0.118% (inactive)

Output measured activity, negative = inhibition for this item: `COc1ccc(NC(=O)N2CCCC3(CCN(C(=O)c4cnccn4)CC3)C2)cc1`
-7.92% (inactive)

Return reported activity, negative = inhibition. Input compound: `COCC(=O)N1CCC[C@@]2(CCN(Cc3ccccc3OC)C2)C1`
-1.88% (inactive)

Identify measured activity, negative = inhibition associated with `CC(C)NC(=O)N1CC[C@@]2(CCCN(S(C)(=O)=O)C2)C1`
-2.56% (inactive)

Give activity, negative = inhibition for `COc1ccc(CNc2cc(-c3cccc(C#N)c3)ncn2)c(OC)c1`
-2.42% (inactive)

Provide one value: measured activity, negative = inhibition of `CCNc1ncc2nc(CCc3ccccc3)c(=O)n(CCOC)c2n1`
-8.07% (inactive)

Tell me measured activity, negative = inhibition for `CC(C)NC(=O)N1CC[C@@]2(CCCN(C(=O)c3csnn3)C2)C1` please.
10.6% (inactive)

Supply reported activity, negative = inhibition belonging to this compound: `O=c1cnc2cnc(Oc3cccc(Cl)c3)nc2n1C[C@H]1CCCO1`
-13.3% (inactive)

Identify measured activity, negative = inhibition associated with `COC(=O)N1CCC2(CC1)CN(C(=O)Nc1ccccc1)C2`
1.2% (inactive)

Name the recorded activity, negative = inhibition of the item `COCCNc1ccnc(-c2cccc(NS(C)(=O)=O)c2)n1` in your answer.
-1.1% (inactive)

Supply recorded activity, negative = inhibition for `FC(F)(F)c1cc(CN2CCCC3(CCNCC3)C2)cc(C(F)(F)F)c1` here.
1.59% (inactive)

Could you please provide reported activity, negative = inhibition for `Cc1noc(C)c1-c1cncnc1NCc1cccnc1` ? Thanks!
14.8% (inactive)

Identify the reported activity, negative = inhibition for the following entry. `O=C(c1ccco1)N1CCC2(CC1)CN(Cc1cc(C(F)(F)F)cc(C(F)(F)F)c1)C2`
2.41% (inactive)

Given the compound `N#Cc1cccc(-c2cc(NCc3ccccc3)ncn2)c1` , write its reported activity, negative = inhibition.
4.28% (inactive)

All values here come from PubChem BioAssay (NCATS).
